experimental protocol: Approximate solubilities of Form I crystals of T-62 (solvent added until clear solution)
Assay type: physicochemical
measurement setup: organic solvent or mixture, thermodynamic from solid; RT; EtOAc; read-out: Solubility
endpoint name: solubility (mg/mL)
Respond with the bare value in mg/mL.

Prompt: Please give measured solubility of the following entry: Nc1sc2c(c1C(=O)c1ccc(Cl)cc1)CCCC2 [Form I]
Completion: 67.8

----------
experimental protocol: Approximate solubilities of Form I crystals of T-62 (solvent added until clear solution)
Type: physicochemical
measurement setup: organic solvent or mixture, thermodynamic from solid; RT; N,N-dimethylformamide (DMF); read-out: Solubility
endpoint name: solubility (mg/mL)
Quick note: give the figure in mg/mL, leave out the unit.

Prompt: Let me know recorded solubility for Nc1sc2c(c1C(=O)c1ccc(Cl)cc1)CCCC2 [Form I] , thanks.
Completion: 129
